# System: Miapaca-2 cells
# assay_explanation: MiaPaca-2 Combination Cell proliferation Assay (1) with cobimetinib
# Format: cell-based
# conditions: MiaPaca-2 cell proliferation, read-out: MiaPaca-2 Combo (1) IC50
Reported IC50 values for the following compounds.

query_smiles	system_name	result_value
CC(=O)Nc1cc(-c2nccc(-c3cc(NC(=O)c4ccnc(C(F)(F)F)c4)ccc3C)n2)ccn1	Miapaca-2 cells	≤ 100 nM
CNC(=O)c1cc(-c2cc(-c3cc(NC(=O)c4ccnc(C(C)(C)C#N)c4)ccc3C)ccn2)ccn1	Miapaca-2 cells	≤ 100 nM
Cc1ccc(NC(=O)c2ccnc(C(C)(C)C#N)c2)cc1-c1ccnc(-c2ccnc(NC(=O)C3(C#N)CC3)c2)n1	Miapaca-2 cells	100 to 500 nM

Supply IC50 measured with Miapaca-2 cells for "Cc1ccc(NC(=O)c2ccnc(C(C)(C)C#N)c2)cc1-c1cncc(-c2cc(NC(=O)C3CC3)ncn2)c1" . ≤ 100 nM

----------
# system_name: B-Raf (V600E) (SEQ. ID NO: 4) kinase (Homo sapiens (Human), UniProt P15056, V600E)
# Sequence (P15056 416-766 V600E): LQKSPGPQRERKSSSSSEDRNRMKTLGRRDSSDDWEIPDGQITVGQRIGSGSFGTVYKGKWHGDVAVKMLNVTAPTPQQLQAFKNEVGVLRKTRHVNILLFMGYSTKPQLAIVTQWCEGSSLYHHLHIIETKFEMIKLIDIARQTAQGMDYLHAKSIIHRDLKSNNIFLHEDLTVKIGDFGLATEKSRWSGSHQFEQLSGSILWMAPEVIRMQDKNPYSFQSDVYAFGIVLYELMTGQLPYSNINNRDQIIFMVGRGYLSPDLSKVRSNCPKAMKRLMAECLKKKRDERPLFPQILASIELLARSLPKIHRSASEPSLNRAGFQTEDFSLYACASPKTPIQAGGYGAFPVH
# assay_explanation: Biochemical Assay for B-Raf (V600E) (1)
# conditions: Table J, BRAF V600E, biochemical assay (1); read-out: BRAF VE (1)
Reported IC50 values for the following compounds.

query_smiles	result_value
Cc1ccc(NC(=O)c2ccnc(C(C)(C)F)c2)cc1-c1cncc(-c2ccnc3c2CC(=O)N3)c1	≤ 100 nM
CNC(=O)c1cc(-c2nccc(-c3cc(NC(=O)c4ccnc(C(C)(C)F)c4)c(F)cc3C)n2)ccn1	≤ 100 nM
COC(=O)Nc1cc(-c2cc(-c3cc(NC(=O)c4ccnc(C(C)(C)F)c4)ccc3C)nc(C)n2)ccn1	≤ 100 nM
Cc1ccc(NC(=O)Cn2cc(C(C)C)nn2)cc1-c1cncc(-c2cc(N)ncn2)c1	1000 to 10000 nM

Please list IC50 recorded for the compound "CNC(=O)c1cc(-c2cncc(-c3cc(NC(=O)c4ccnc(C(C)(C)F)c4)ccc3C)c2)ncn1" ≤ 100 nM

----------
# system_name: B-Raf (V600E) (SEQ. ID NO: 4) kinase (Homo sapiens (Human), UniProt P15056, V600E)
# assay_explanation: Biochemical Assay for B-Raf (V600E) (1)
# conditions: Table J, BRAF V600E, assay version (1); read-out: BRAF VE (1) IC50
pIC50: −log10 of the molar value.
readout_type: pIC50

Supply pIC50 measured with B-Raf (V600E) (SEQ. ID NO: 4) kinase (Homo sapiens (Human), UniProt P15056, V600E) for Cc1ncc(NC(=O)C2CCOCC2)cc1-c1ccnc(-c2ccnc(NC(=O)C3CC3)c2)n1 [Example 336] . 6.00 to 6.30

----------
# system_name: B-Raf kinase (SEQ. ID NO: 2) (Homo sapiens (Human), UniProt P15056)
# Sequence (P15056 416-766): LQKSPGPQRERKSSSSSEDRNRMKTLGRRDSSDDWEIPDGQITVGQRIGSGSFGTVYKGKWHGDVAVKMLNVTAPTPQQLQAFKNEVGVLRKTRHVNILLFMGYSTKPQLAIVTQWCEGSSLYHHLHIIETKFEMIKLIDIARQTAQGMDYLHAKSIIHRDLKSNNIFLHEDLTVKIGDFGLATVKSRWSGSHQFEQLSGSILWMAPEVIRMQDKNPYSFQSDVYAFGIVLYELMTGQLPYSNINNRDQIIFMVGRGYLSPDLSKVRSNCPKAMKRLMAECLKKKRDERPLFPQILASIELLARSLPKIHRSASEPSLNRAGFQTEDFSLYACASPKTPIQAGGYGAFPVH
# assay_explanation: Biochemical Assay for B-Raf (2)
# conditions: Table J, biochemical assay (2); read-out: BRAF (2)
pIC50: −log10 of the molar value.
readout_type: pIC50

Please list pIC50 recorded for the compound CNC(=O)c1cc(-c2cc(-c3cc(NC(=O)c4ccnc(C(C)(C)F)n4)ccc3C)ccn2)ccn1 [Example 494] 6.30 to 7.00

Please list pIC50 recorded for the compound CNC(=O)c1cc(-c2cc(-c3cc(NC(=O)c4ccnc(C(C)(C)F)c4)ccc3C)c(F)cn2)ccn1 [Example 469] ≥ 7.00

----------
Reported IC50 values for the following molecules.
# system_name: B-Raf kinase (SEQ. ID NO: 2) (Homo sapiens (Human))
# assay_explanation: Biochemical Assay for B-Raf (1)
# conditions: Table J, assay version (1); read-out: BRAF (1) IC50

These solved cases illustrate the format of a correct answer.
molecule	system_name	IC50
Cc1ncc(NC(=O)c2ccnc(C(C)(C)C#N)c2)cc1-c1cccc(-c2ccnc3[nH]cnc23)c1 [Example 111]	B-Raf kinase (SEQ. ID NO: 2) (Homo sapiens (Human))	500 to 1000 nM
CC(=O)Nc1cc(-c2cc(-c3cc(NC(=O)c4ccnc(C(C)(C)C#N)c4)c(F)cc3C)ccn2)ccn1 [Example 75]	B-Raf kinase (SEQ. ID NO: 2) (Homo sapiens (Human))	≤ 100 nM
COCCNc1cc(-c2cncc(-c3cc(NC(=O)c4ccnc(C(F)(F)F)c4)ccc3C)n2)ccn1 [Example 119]	B-Raf kinase (SEQ. ID NO: 2) (Homo sapiens (Human))	100 to 500 nM
CC(=O)Nc1cc(-c2nccc(-c3cc(NC(=O)c4ccnc(C(F)(F)F)c4)ccc3C)n2)ccn1 [Example 24]	B-Raf kinase (SEQ. ID NO: 2) (Homo sapiens (Human))	≤ 100 nM
Cc1ccc(NC(=O)c2cc(C(C)(C)C)no2)cc1-c1cc(-c2ccnc(NC(=O)C3CC3)c2)cnn1 [Example 367]	B-Raf kinase (SEQ. ID NO: 2) (Homo sapiens (Human))	≤ 100 nM

Turning now to a further record.
Please list IC50 recorded for the molecule CC(=O)Nc1cc(-c2cncc(-c3cc(NC(=O)c4cccc(C(C)(C)C#N)c4)ccc3C)n2)ccn1 [Example 125] ≤ 100 nM

----------
Reported pIC50 values for the following compounds.
# system_name: B-Raf kinase (SEQ. ID NO: 2) (Homo sapiens (Human), UniProt P15056)
# assay_explanation: Biochemical Assay for B-Raf (2)
# conditions: Table J, biochemical assay (2); read-out: BRAF (2)
pIC50: −log10 of the molar value.

query_smiles	system_name	pIC50
Cc1ccc(NC(=O)c2ccnc(C(C)(C)F)c2)cc1-c1ccnc(-c2ccnc(C(=O)NCCO)c2)c1	B-Raf kinase (SEQ. ID NO: 2) (Homo sapiens (Human), UniProt P15056)	6.30 to 7.00
CNC(=O)c1cc(-c2cc(-c3cc(NC(=O)c4ccnc(C5CC5)c4)cnc3C)ccn2)ccn1	B-Raf kinase (SEQ. ID NO: 2) (Homo sapiens (Human), UniProt P15056)	6.30 to 7.00

Please list pIC50 recorded for the compound "CNC(=O)c1cc(-c2cc(-c3cc(NC(=O)c4ccnc(C5(C#N)CC5)c4)cnc3C)ccn2)ccn1" 6.30 to 7.00

Value source: patent US12319655B2
